Origin of measurements: patent US20190367619A1

Molecular target: T1, human galectin-10-His (recombinant human galectin-10 with TEV-cleavable N-terminal His-tag) (human)
T1 construct: SEC-MALLS: dimer in solution; also called Gal10-His; humanGal10-His
T1 chain: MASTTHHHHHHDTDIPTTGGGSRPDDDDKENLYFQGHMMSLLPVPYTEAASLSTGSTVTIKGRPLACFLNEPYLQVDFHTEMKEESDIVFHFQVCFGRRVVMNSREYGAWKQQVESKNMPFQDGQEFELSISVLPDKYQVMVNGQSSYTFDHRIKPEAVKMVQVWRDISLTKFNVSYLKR
Assay: BLI tandem on galectin-10-His; competitor: saturating 6A05 mIgG1 (10 ug/mL)
Experimental endpoint: binding signal (nm)
Express your answer in nm, writing the number without its unit.

Look over these answered cases.
| Binder | Units symbol | binding signal (nm) |
| --- | --- | --- |
| 1C09 mouse IgG1 (antibody, V domains shown, VH on mouse IgG1 heavy chain constant domains (CH1-CH2-CH3), VL on mouse lambda light chain constant domain; also called 1C09 mIgG1) VH: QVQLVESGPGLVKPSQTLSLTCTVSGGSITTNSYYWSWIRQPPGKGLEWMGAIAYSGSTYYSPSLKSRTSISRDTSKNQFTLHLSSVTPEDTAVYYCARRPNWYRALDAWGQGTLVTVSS VL: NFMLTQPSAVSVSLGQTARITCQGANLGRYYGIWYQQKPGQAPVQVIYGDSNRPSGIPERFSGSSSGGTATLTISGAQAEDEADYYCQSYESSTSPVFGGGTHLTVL | nm | 0.09 |
| 6F06 mouse IgG1 (antibody, V domains shown, also called 6F06 mIgG1) VH: QVQLVESGGGLVQPGGSLRLSCAASEFTFSRYSMSWVRQAPGKGLEWVSTINSGGGSTSYVDSVKGRFTISRDNAKNTLYLQMNSLKPEDTAVYYCTKSQGGISFSTQYGMDYWGKGTLVTVSS VL: NFMLTQPSAVSVSLGQTARITCQGGNFGRYYANWYQQKPGQAPVLVIYKDSERPSGIPERFSGSSSGDTATLTISGAQAEDESDYYCQSGSVSDNAVFGGGTHLAVL | nm | 0.05 |

// moving on: another record for binding signal (nm)
Please supply the value of reported binding signal (nm) for the item 6A08 mouse IgG1 (antibody, V domains shown, also called 6A08 mIgG1) VH: QVQLVESGGGLVQPGGSLRLSCAASGFTFSSYAMSWVRQAPGKGPEWVSAINRGGGSTYYADSVKGRFTISRDNAKNTLYLQMNSLKPEDAAVYYCATPGDRLWYYRYDYWGQGAQVTVSS VL: QTVVTQEPSLSVSPGGTVTLTCGLSSGSVTSSNYPGWYQQTPGQAPRLLIYNTNSRYSGVPNRFSGSISGNKAALIISGAQPEDEADYHCALNRVRGTYRVFGGGTHLTVL
0.05
